cytotoxicity at 70.5 h reference
Test: Human HepG2 cell viability assay in 384 well format
Type: toxicity, cell-based
Set-up: dose 125 nL, time 70.5 hour; concentration not given beside the values
Details: HepG2 cells, read-out: Inhibition

Would you please look over these solved cases?
compound: CC(C)N(C)Cc1cnc2n1CCN(Cc1cccc(C#N)c1)C2
measurement: -13.7%

compound: CCc1ncncc1C(=O)N1CCCN(Cc2ccccc2C)CC1
measurement: -8.2%

compound: CCc1nnsc1-c1nc(C(C)C)nn1-c1ccc2c(c1)OCO2
measurement: -5.86%

compound: Cc1cncc(C2CCCN(C(=O)c3scnc3C)C2)n1 (stereo not drawn)
measurement: -3.5%

compound: COc1ccc(NC(=O)Cn2ccc3c(=O)n(C)ccc32)cc1OC
measurement: -3.38%

compound: CNC(=O)C1(c2cnccn2)CCCN1C(=O)c1cccc(C)n1 (stereo not drawn)
measurement: -5.53%

(Q) Name the recorded cytotoxicity at 70.5 h for O=C(c1nc2c(s1)CCCN2C(=O)C1CC1)N1CCCC1 .
(A) -3.91%

(Q) Name the recorded cytotoxicity at 70.5 h for CNc1ncccc1CN1CCN(c2cc(NC3CC3)nc(N)n2)CC1 .
(A) 0.197%

* * *

Experiment: Human HepG2 cell viability assay in 384 well format
Type: toxicity, cell-based
Set-up: dose 125 nL, time 70.5 hour; concentration not given beside the values
Conditions: HepG2 cells, read-out: Inhibition
measurement type: cytotoxicity at 70.5 h (%)
Report only the number, with the unit % understood.

Would you please look over these solved cases?
compound: O=C(c1ccccn1)N1CCC2(CCCN(c3nncs3)C2)C1 (centres undefined)
unit annotation: %
cytotoxicity at 70.5 h: -9.42
//
compound: Cc1ccc(S(=O)(=O)N2C[C@H]3C[C@H](NC(=O)c4cscn4)[C@H]3C2)cc1
unit annotation: %
cytotoxicity at 70.5 h: 9.07
//
compound: CC(C)CCN1CCNC(=O)C1CC(=O)NCCc1cc(O)ncn1 (centres undefined)
unit annotation: %
cytotoxicity at 70.5 h: -11

(Q) Name the recorded cytotoxicity at 70.5 h for O=C(CCNc1ccc(Cl)cn1)NCc1ccncc1 .
(A) -8.13

(Q) Name the recorded cytotoxicity at 70.5 h for CCc1nnc(CN(C)C(=O)C2CC(=O)N(C3CC3)C2)o1 (centres undefined) .
(A) -6.39

(Q) Name the recorded cytotoxicity at 70.5 h for CCOc1ccc(NC(=O)N(C)Cc2cnn(C)c2)c(C)c1 .
(A) -5.21

(Q) Name the recorded cytotoxicity at 70.5 h for Cc1ccc2nc(C)cc(C(=O)N3C[C@H]4CCC[C@@]4(CO)C3)c2c1 .
(A) -6.32

(Q) Name the recorded cytotoxicity at 70.5 h for CC1(C)CNC(=O)c2nc(-c3nnc(-c4ccccc4)[nH]3)[nH]c2C1 .
(A) 0.339

(Q) Name the recorded cytotoxicity at 70.5 h for Cc1ccc(CNC(=O)C2CCN(C(=O)c3ccccc3)CC2)n1C .
(A) -8.06

* * *

Assay: Human HepG2 cell viability assay in 384 well format
Type: toxicity, cell-based
Parameters: dose 125 nL, time 70.5 hour; concentration not given beside the values
Conditions: HepG2 cells, read-out: Inhibition
measurement type: cytotoxicity at 70.5 h (%)
Report only the number, with the unit % understood.

Would you please look over these solved cases?
compound: OCCNc1cc(-c2nccnc2N2CCCC2)c2cc[nH]c2n1
unit annotation: %
measurement: 34
//
compound: Cc1cnn(CC2CN(Cc3nc(-c4ccccn4)no3)CCO2)c1 (stereo not given)
unit annotation: %
measurement: 2.23
//
compound: Cc1nc2c(N(CCC(N)=O)CCc3ccccc3)ncnc2o1
unit annotation: %
measurement: 22
//
compound: Cc1nc(CC(=O)N2CCCC(N(C)Cc3ccccc3)C2)cs1 (stereo not given)
unit annotation: %
measurement: 1.48
//
compound: Cc1cnn(CCNCc2nc(-c3ccccn3)no2)c1
unit annotation: %
measurement: -6.05

(Q) Name the recorded cytotoxicity at 70.5 h for Cc1cc(OCC(=O)N2CCCC2c2noc(C)n2)no1 (stereo not given) .
(A) -13.8

(Q) Name the recorded cytotoxicity at 70.5 h for CCS(=O)(=O)N1CCC2(CCN(Cc3ccc(C)o3)C2)C1 (stereo not given) .
(A) 13

(Q) Name the recorded cytotoxicity at 70.5 h for CN(Cc1nccs1)C1CCN(c2cccc(-c3cscn3)c2)CC1 .
(A) 10.5

(Q) Name the recorded cytotoxicity at 70.5 h for CC(C)CN1CCC2(C=C(C(=O)NC3CC3)c3ccccc32)CC1 .
(A) -11.9

(Q) Name the recorded cytotoxicity at 70.5 h for O=C1[C@H]2CN(Cc3nccs3)C[C@H]2CN1c1ccsc1 .
(A) -1.21
